target: Delta-type opioid receptor (Mus musculus) (UniProt P32300); experiment: Opioid receptor delta 1 antagonistic activity was measured by the displacement of DADLE in the mouse vas deferens at a concentration of 100 nM; assay type: functional
Sequence (P32300 whole entry): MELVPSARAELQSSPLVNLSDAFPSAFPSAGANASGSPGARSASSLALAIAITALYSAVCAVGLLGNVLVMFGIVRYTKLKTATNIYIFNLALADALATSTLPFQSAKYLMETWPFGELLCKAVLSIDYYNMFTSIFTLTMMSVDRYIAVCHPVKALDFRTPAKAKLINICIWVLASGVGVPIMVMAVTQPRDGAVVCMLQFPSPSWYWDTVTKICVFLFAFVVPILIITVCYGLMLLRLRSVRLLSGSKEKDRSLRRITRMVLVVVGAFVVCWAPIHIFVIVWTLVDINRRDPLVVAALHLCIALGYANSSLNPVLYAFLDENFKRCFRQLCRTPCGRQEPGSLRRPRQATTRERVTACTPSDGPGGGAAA
Where a SMILES comes first, the peptide text is derived from it. [ ]: non-standard residue; d: D form. The star is where a group is joined. Tyr(Nα,Nα-allyl2) = C=CCN(CC=C)[C@@H](Cc1ccc(O)cc1)C(=O)*; Aib = CC(C)(N)C(=O)O
Task for the reader: assign each of the following molecules its reported IC50 ratio.
Answers are plain numbers.

Check out these entries, answers already filled in.
INSERT INTO measurements (molecule, readoutvalue) VALUES
  ('C=CCN1CC[C@]23c4c5ccc(O)c4O[C@H]2c2[nH]c4ccccc4c2C[C@@]3(O)[C@H]1C5', 93),
  ('Cc1cccc2c3c([nH]c12)[C@@H]1Oc2c(O)ccc4c2[C@@]12CCN(CC1CC1)[C@H](C4)[C@]2(O)C3', 67),
  ('Oc1ccc2c3c1O[C@H]1c4[nH]c5cc(F)ccc5c4C[C@@]4(O)[C@@H](C2)N(CC2CC2)CC[C@]314', 24),
  ('Oc1ccc2c3c1O[C@H]1c4[nH]c5c(ccc6ccccc65)c4C[C@@]4(O)[C@@H](C2)N(CC2CC2)CC[C@]314', 12.1),
  ('C=CCN(CC=C)[C@@H](Cc1ccc(O)cc1)C(=O)NC(C)(C)C(=O)NC(C)(C)C(=O)N[C@@H](Cc1ccccc1)C(=O)N[C@@H](CC(C)C)C(=O)O ({Tyr(Nα,Nα-allyl2)}-[Aib][Aib]FL-OH)', 15.6);

Return reported IC50 ratio values for all items listed beneath this line.
1. Oc1ccc2c3c1O[C@H]1c4[nH]c5c(Br)cccc5c4C[C@@]4(O)[C@@H](C2)N(CC2CC2)CC[C@]314
2. CN1CC[C@]23c4c5ccc(O)c4O[C@H]2c2[nH]c4ccccc4c2C[C@@]3(O)[C@H]1C5 [OXYMORPHINDOLE]
3. Cc1ccc2c3c([nH]c2c1)[C@@H]1Oc2c(O)ccc4c2[C@@]12CCN(CC1CC1)[C@H](C4)[C@]2(O)C3

[85, 1.6, 30]

Return reported IC50 ratio values for all items listed beneath this line.
1. CN1CC[C@]23c4c5ccc(O)c4O[C@H]2c2c(c4ccccc4n2C)C[C@@]3(O)[C@H]1C5
2. Oc1ccc2c3c1O[C@H]1c4c(c5ccccc5n4-c4ccccc4)C[C@@]4(O)[C@@H](C2)N(CC2CC2)CC[C@]314

1: 1.2; 2: 33

Lookup: IC50 ratio / Delta-type opioid receptor (Mus musculus) (UniProt P32300) / `Oc1ccc2[nH]c3c(c2c1)C[C@@]1(O)[C@H]2Cc4ccc(O)c5c4[C@@]1(CCN2CC1CC1)[C@H]3O5`
4.7

* * *

Task for the reader: assign each of the following compounds its reported Ke.
target: Kappa-type opioid receptor (Cavia porcellus) (UniProt P41144); assay: Antagonist potency was determined as the ratio of [antagonist] to (IC50 ratio-1) for Opioid receptor kappa 1; format: functional
Sequence (P41144 whole entry): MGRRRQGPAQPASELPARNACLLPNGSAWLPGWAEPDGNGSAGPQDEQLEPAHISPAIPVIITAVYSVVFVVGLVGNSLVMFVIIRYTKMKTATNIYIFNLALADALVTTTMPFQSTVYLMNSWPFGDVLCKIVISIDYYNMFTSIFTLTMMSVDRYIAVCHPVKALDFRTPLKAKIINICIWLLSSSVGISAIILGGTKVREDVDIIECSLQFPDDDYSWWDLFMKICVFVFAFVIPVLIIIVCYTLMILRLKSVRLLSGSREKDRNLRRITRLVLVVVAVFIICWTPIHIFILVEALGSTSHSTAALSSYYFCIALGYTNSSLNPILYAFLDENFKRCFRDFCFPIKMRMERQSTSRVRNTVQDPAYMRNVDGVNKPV
Where a SMILES comes first, the peptide text is derived from it. [ ]: non-standard residue; d: D form. The star is where a group is joined. Tyr(Nα,Nα-allyl2) = C=CCN(CC=C)[C@@H](Cc1ccc(O)cc1)C(=O)*; Aib = CC(C)(N)C(=O)O

Check out these entries, answers already filled in.
INSERT INTO results (compound, measuredparameter, readoutvalue) VALUES
  ('C=CCN(CC=C)[C@@H](Cc1ccc(O)cc1)C(=O)NC(C)(C)C(=O)NC(C)(C)C(=O)N[C@@H](Cc1ccccc1)C(=O)N[C@@H](CC(C)C)C(=O)O ({Tyr(Nα,Nα-allyl2)}-[Aib][Aib]FL-OH)', 'Ke', '> 1250 nM'),
  ('Oc1ccc2c3c1O[C@H]1c4[nH]c5cc6ccccc6cc5c4C[C@@]4(O)[C@@H](C2)N(CC2CC2)CC[C@]314', 'Ke', '> 100 nM'),
  ('Oc1ccc2c3c1O[C@H]1c4[nH]c5c(F)cccc5c4C[C@@]4(O)[C@@H](C2)N(CC2CC2)CC[C@]314', 'Ke', '> 333 nM'),
  ('COc1cccc2c3c([nH]c12)[C@@H]1Oc2c(O)ccc4c2[C@@]12CCN(CC1CC1)[C@H](C4)[C@]2(O)C3', 'Ke', '> 185 nM');

Return reported Ke values for all items listed beneath this line.
1. Oc1ccc2c3c1O[C@H]1c4[nH]c5c(Br)cccc5c4C[C@@]4(O)[C@@H](C2)N(CC2CC2)CC[C@]314
2. O=[N+]([O-])c1ccc2[nH]c3c(c2c1)C[C@@]1(O)[C@H]2Cc4ccc(O)c5c4[C@@]1(CCN2CC1CC1)[C@H]3O5
3. Cc1cccc2c3c([nH]c12)[C@@H]1Oc2c(O)ccc4c2[C@@]12CCN(CC1CC1)[C@H](C4)[C@]2(O)C3
4. Oc1ccc2c3c1O[C@H]1c4c(c5ccccc5n4-c4ccccc4)C[C@@]4(O)[C@@H](C2)N(CC2CC2)CC[C@]314
5. Oc1ccc2c3c1O[C@H]1c4[nH]c5c(O)cccc5c4C[C@@]4(O)[C@@H](C2)N(CC2CC2)CC[C@]314

> 143 nM
> 870 nM
> 333 nM
> 152 nM
> 250 nM

Return reported Ke values for all items listed beneath this line.
1. CN1CC[C@]23c4c5ccc(O)c4O[C@H]2c2[nH]c4ccccc4c2C[C@@]3(O)[C@H]1C5 [OXYMORPHINDOLE]
2. CC(=O)O[C@@]12Cc3c([nH]c4ccccc34)[C@@H]3Oc4c(O)ccc5c4[C@@]31CCN(CC1CC1)[C@@H]2C5
3. Oc1ccc2[nH]c3c(c2c1)C[C@@]1(O)[C@H]2Cc4ccc(O)c5c4[C@@]1(CCN2CC1CC1)[C@H]3O5
4. C=CCN1CC[C@]23c4c5ccc(O)c4O[C@H]2c2[nH]c4ccccc4c2C[C@@]3(O)[C@H]1C5
5. CN1CC[C@]23c4c5ccc(O)c4O[C@H]2c2c(c4ccccc4n2C)C[C@@]3(O)[C@H]1C5

1: > 167 nM; 2: > 127 nM; 3: 48 nM; 4: > 82 nM; 5: > 200 nM
